The origin of these recorded values is ChEMBL document CHEMBL1201862.

Tested on: HCC 2998
Test: NCI tumour cell line growth inhibition, 48 h
The source made the active and inactive calls. Cut-off read from the data, not from the text of the source: active = GI50 up to about 1.1 µM and inactive = higher.
Consider the following molecules and their measured GI50 readings.

As a guide, the following entries are already answered.
{"molecule": "CC1=CC(=O)C2=C(C)CCC3C(C)C(=O)OC3C12 (stereo unspecified)", "test.system": "HCC 2998", "GI50": "> 100 µM (inactive)"}
{"molecule": "N=C1OC(c2ccc3c(c2)OCO3)C(NNS(=O)(=O)c2ccccc2)=C1O (stereo unspecified)", "test.system": "HCC 2998", "GI50": "> 100 µM (inactive)"}
{"molecule": "C/C(Nc1ccc(Cl)cc1Cl)=C1/CCOC1=O", "test.system": "HCC 2998", "GI50": "> 100 µM (inactive)"}
{"molecule": "OCCCC(O)(c1ccccc1)c1ccccc1", "test.system": "HCC 2998", "GI50": "> 100 µM (inactive)"}
{"molecule": "C[C@H](CCC(=O)O)[C@H]1CC[C@H]2[C@@H]3[C@@H](O)C[C@@H]4C[C@H](O)CC[C@]4(C)[C@H]3CC[C@]12C", "test.system": "HCC 2998", "GI50": "> 100 µM (inactive)"}

Next molecule, GI50 to be filled in.
Query GI50 on HCC 2998 for CCN1CCC(O)(c2ccc(Cl)c(Cl)c2)C(C(=O)c2ccc(Cl)c(Cl)c2)C1 (stereo unspecified) 19.9 µM (inactive)
